Field: pKi. Provide a value for each of the compounds that follow.
Biological target: Rat α4β2 (Rattus norvegicus, UniProt P09483+P12390)
Construct: Preparation of membranes from rat tissues; Rat cortices were obtained from Analytical Biological Services; tissue Analytical Biological Services, Incorporated (ABS, Wilmington, Del.); host or cells: rat cortex membranes (female Sprague-Dawley)
Assay: Competition binding to rat α4β2 receptors in membrane preparations
Settings: membranes, [3H]-epibatidine competition; Ki by Cheng-Prusoff; read-out: Rat α4β2 Ki
Give bare numbers, as −log10 of the molar value.

Known pKi results, listed for orientation:
CN1CC2CN(c3cccnc3)CC(C1)O2 :: 6.74
Clc1ccc(N2CC3CNCC(C2)O3)nn1 :: 7.02
Cc1ccc(N2CC3CNCC(C2)O3)cn1 :: 7.52
c1ccc(N2CC3CNCC(C2)O3)nc1 :: 6.46
c1cnc(N2CC3CNCC(C2)O3)cn1 :: 6.60

Please state, for each entry, its recorded pKi.
1. Clc1cncc(N2CC3CNCC(C2)O3)c1
2. FC(F)(F)c1ccc(N2CC3CNCC(C2)O3)cn1

1: 8.68; 2: 7.32

====

Biological target: Rat α4β2 (Rattus norvegicus, UniProt P09483+P12390)
Construct: Preparation of membranes from rat tissues; Rat cortices were obtained from Analytical Biological Services; tissue Analytical Biological Services, Incorporated (ABS, Wilmington, Del.); host or cells: rat cortex membranes (female Sprague-Dawley)
Assay: Competition binding to rat α4β2 receptors in membrane preparations
measurement-kind: Ki

# example entries with known answers
FCCCOc1cc(N2CC3CNCC(C2)O3)cnc1Cl :: 0.73 nM
c1ncc(N2CC3CNCC(C2)O3)cc1C1CC1 :: 6.4 nM
CN1CC2CN(c3cnc(Cl)c(Cl)c3)CC(C1)O2 :: 33 nM
FC(F)Oc1cc(N2CC3CNCC(C2)O3)cnc1Cl :: 0.08 nM
Fc1cc(F)cc(N2CC3CNCC(C2)O3)c1 :: 97 nM
Clc1ccc(N2CC3CNCC(C2)O3)cn1 :: 5.2 nM
N#Cc1cc(N2CC3CNCC(C2)O3)cnc1F :: 24 nM
c1cc2ncc(N3CC4CNCC(C3)O4)cc2o1 :: 91 nM

# return Ki for each item in the list
1. COc1cncc(N2CC3CNCC(C2)O3)c1
2. FCCCCOc1cc(N2CC3CNCC(C2)O3)cnc1Cl
3. COc1cc(N2CC3CNCC(C2)O3)cnc1Cl
4. c1cncc(N2CC3CNCC(C2)O3)c1

1. 1.9 nM
2. 0.35 nM
3. 1 nM
4. 3.9 nM

Query for Rat α4β2 (Rattus norvegicus, UniProt P09483+P12390): what Ki does the record show for `Fc1cncc(N2CC3CNCC(C2)O3)c1` ?
1.3 nM

====

Target: human α4β2 (Homo sapiens, UniProt P17787+P43681)
Test: Competition binding to human α4β2 receptors in membrane preparations
Details: membranes, [3H]-nicotine competition; Ki by Cheng-Prusoff; read-out: human α4β2 Ki
Assign classes using reported Ki values and the ranges lower band = under 4 nM, central band = from 4 nM up to 40 nM, upper band = 40 nM and over, please.

FCCOc1cc(N2CC3CNCC(C2)O3)cnc1Cl :: lower band
c1ncc(N2CC3CNCC(C2)O3)cc1OCC1CC1 :: lower band
FC(F)(F)c1cncc(N2CC3CNCC(C2)O3)c1 :: lower band
N#Cc1cc(N2CC3CNCC(C2)O3)cnc1F :: central band
Cc1cncc(N2CC3CNCC(C2)O3)c1 :: lower band
CN1CC2CN(c3cncc(Cl)c3)CC(C1)O2 :: upper band
N#Cc1ccc(N2CC3CNCC(C2)O3)cn1 :: upper band
N#Cc1cncc(N2CC3CNCC(C2)O3)c1 :: lower band

For this molecule, which bin applies? `c1ncc(N2CC3CNCC(C2)O3)cn1`
central band

Pick a category. Item: `COc1cccc(N2CC3CNCC(C2)O3)c1`
central band

Could you tell me which band `CN1CC2CN(c3cnc(Br)nc3)CC(C1)O2` belongs to?
upper band

Could you tell me which band `c1cc2ncc(N3CC4CNCC(C3)O4)cc2o1` belongs to?
upper band

GET /class?item= `Cc1ccc(N2CC3CN(C)CC(C2)O3)cn1`
upper band

====

Target: human α4β2 (Homo sapiens, UniProt P17787+P43681)
Test: Competition binding to human α4β2 receptors in membrane preparations
Settings: membranes, [3H]-nicotine competition; Ki by Cheng-Prusoff; read-out: human α4β2 Ki
pKi: −log10 of the molar value.
Rule: true for pKi not less than 8, false for anything less.

Example results:
FC1(F)Oc2ccc(N3CC4CNCC(C3)O4)cc2O1 :: false
CN1CC2CN(c3cccnc3)CC(C1)O2 :: false
COc1cncc(N2CC3CNCC(C2)O3)c1 :: true

Threshold query (pKi >= 8) on `Fc1cncc(N2CC3CNCC(C2)O3)c1`
true

Test whether the compound `CN1CC2CN(c3cncc(Oc4ccc(Cl)c(Cl)c4)c3)CC(C1)O2` records pKi of 8 or higher.
false

Does `Clc1ccc(N2CC3CNCC(C2)O3)cn1` have a reported pKi of at least 8?
true

Given `Cc1cncc(N2CC3CN(C)CC(C2)O3)c1` , state whether its pKi is at least 8.
false

====

Target: Rat α7 (Rattus norvegicus, UniProt Q05941)
Construct: Preparation of membranes from rat tissues; Rat cortices were obtained from Analytical Biological Services; tissue Analytical Biological Services, Incorporated (ABS, Wilmington, Del.); host or cells: rat brain membranes (only cortex is described)
Assay: Competition binding to rat α7 receptors in membrane preparations
Conditions: membranes, [3H]-epibatidine competition; Ki by Cheng-Prusoff; read-out: Rat α7 Ki
Provide the reported pKi of each item.
One number for each entry, as −log10 of the molar value.

Some compounds with known pKi results, for comparison:
Cc1cncc(N2CC3CNCC(C2)O3)c1 :: 6.70
CC(C)Oc1cncc(N2CC3CNCC(C2)O3)c1 :: 4.21
c1ncc(N2CC3CNCC(C2)O3)cn1 :: 5.49
Clc1ccc(Oc2cncc(N3CC4CNCC(C3)O4)c2)cc1Cl :: 6.68
Clc1cc(N2CC3CNCC(C2)O3)cnc1Cl :: 7.08
Clc1cncc(N2CC3CNCC(C2)O3)c1 :: 6.43
FC(F)(F)c1cncc(N2CC3CNCC(C2)O3)c1 :: 4.77
COc1cncc(N2CC3CNCC(C2)O3)c1 :: 6.25

For each of the compounds below, note its pKi.
1. Clc1ccc(N2CC3CNCC(C2)O3)cn1
2. c1ncc(N2CC3CNCC(C2)O3)cc1OCC1CC1
3. Fc1ccc(N2CC3CNCC(C2)O3)cn1

1. 6.68
2. 5.03
3. 5.85

What value of measured pKi is listed for `c1cncc(N2CC3CNCC(C2)O3)c1` ?
6.19

====

Biological target: Rat α7 (Rattus norvegicus, UniProt Q05941)
Construct: Preparation of membranes from rat tissues; Rat cortices were obtained from Analytical Biological Services; tissue Analytical Biological Services, Incorporated (ABS, Wilmington, Del.); host or cells: rat brain membranes (only cortex is described)
Assay: Competition binding to rat α7 receptors in membrane preparations
measurement-kind: Ki (nM)
Answers are plain numbers, in nM.

Look up Ki with Rat α7 (Rattus norvegicus, UniProt Q05941) for this compound: `Fc1cncc(N2CC3CNCC(C2)O3)c1`
36

====

Target: human α4β2 (Homo sapiens, UniProt P17787+P43681)
Test: Competition binding to human α4β2 receptors in membrane preparations
Conditions: membranes, [3H]-nicotine competition; Ki by Cheng-Prusoff; read-out: human α4β2 Ki
measurement-kind: Ki (nM)
Answers are plain numbers, in nM.

// known answers, use as guide
Clc1ccncc1N1CC2CNCC(C1)O2 :: 250
CN1CC2CN(c3cncc(F)c3)CC(C1)O2 :: 33
Fc1cc(F)cc(N2CC3CNCC(C2)O3)c1 :: 27
c1cncc(N2CC3CNCC(C2)O3)c1 :: 1.1
c1ccc(-c2ccc(N3CC4CNCC(C3)O4)nn2)cc1 :: 380
CN1CC2CN(c3ccc(C(F)(F)F)nc3)CC(C1)O2 :: 1000
CN1CC2CN(c3cncnc3)CC(C1)O2 :: 270
Fc1ccc(N2CC3CNCC(C2)O3)cn1 :: 2.5
CN1CC2CN(c3ccc(F)nc3)CC(C1)O2 :: 140

// returns reported Ki for input `N#Cc1ncc(N2CC3CNCC(C2)O3)cc1OC(F)F`
0.26

====

Target: human α4β2 (Homo sapiens, UniProt P17787+P43681)
Test: Competition binding to human α4β2 receptors in membrane preparations
measurement-kind: Ki (nM)
Give bare numbers, in nM.

Worked set:
Clc1cncc(N2CC3CNCC(C2)O3)c1 :: 1
Clc1ccc(N2CC3CNCC(C2)O3)nn1 :: 63
COc1cc(N2CC3CNCC(C2)O3)cnc1F :: 0.43
FC(F)(F)c1ccc(N2CC3CNCC(C2)O3)cn1 :: 6.8
Clc1ccccc1Oc1cncc(N2CC3CNCC(C2)O3)c1 :: 3.6

Quick batch: Ki for everything below.
1. Cc1ccc(N2CC3CNCC(C2)O3)cn1
2. Clc1cc(N2CC3CNCC(C2)O3)cnc1Cl
3. FC(F)Oc1cncc(N2CC3CNCC(C2)O3)c1

1: 4.9; 2: 0.3; 3: 0.42
